target_desc: HCV E1E2 complex, isolate H77 (genotype 1a) (hepatitis C virus genotype 1a, isolate …, UniProt P27958 192-383; P27958 384-746)
test_description: Fab screen after panning on E1E2 (H77)

binder | binding result
Fab B5 (Fab, V domains shown) VH: EVQLLESGAEVKKPGSSVKVSCRASGSPYSSYTITWVRQAPGQGLEWMGGIILMTGKANYAQKFQGRVTITADRATATAYMEMSSLTSDDTAIYYCARDPYVYAGDDVWSLSRWGQGTPVIVSS VL: ELTQSPLSLPVIIGQPASISCSSSESLVDSDGNTYLHWFQQRPGQSPRRLIYKVSNRDAGVPDRFSGSGSGTDFTLKISRVEAEDVAVYYCMQATHWPPITFGPGTRLEVKR | binds
Fab J5 (Fab, V domains shown) VH: VQLLEQSGAEVKKPGSSVTVSCKASGGTVSSYPITWVRQAPGQGLEWMGGTIPVFGAPKYAPKFQGRVTITADESTSTAYMELRSLRSDDTAMYYCAIVGMRGITLVGGLAMNWLDPWGQGTLVIVSS VL: ELTQSPGTLSLSPGERATLSCRASQSVSSNYLAWYQQKPGQAPRLLIYGASSRATGIPDRFSGSGSGTDFTLSISRLEPEDFAVYYCQQYGSSPLTFGGGTKVEIKR | binds
Fab U2 (Fab, V domains shown) VH: VQLLEQSGAEVKRPGSSVKLSCKNSGGTFITQAMSWVRQAPGQGLEWMGGIIPVFGTVNYAQNILDRATATADEDTFSLELRGLRLEDTAVYYCAREVNLKTWNLARPDVFDIWGPGTLVTVSS VL: ELTQSPSSLSASIGDRVTIPCRASQSILNHLNWYQQKPGQPPKLLIFAASNLQSGVPSRFSGSGSGTDFTLTISSLQTEDFATYYCQQSYSTPRTFGQGTKVEVKR | binds

Where do the numbers come from? From patent US20110311550A1.
